Biological target: T1, oligopeptide ATYPSG (SEQ ID NO: 104)
T1 construct: Synthetic peptide, part of Loop C of AQP3
T1 peptide: ATYPSG
Assay: ELISA on coated peptide

{"binder": "BC-B10 (IgG) (antibody, V domains shown, also called anti AQP3 antibody BC-B10) VH: QSVEESGGRLVTPGAPLTLTCTVSRFSLSSYAMTWVRQAPGKGLEWIGIINNDVISSTWYASWVKGRFTISKTSTTMELKMTSLTTEDTATYFCARGGTSGYDIWGPGTLVTVSS VL: AIKMTQTPSPVSAAVGGTVTINCQSSPSVYKNYLSWYQQKPGQPPKLLIYGASTLASGVPSRFKGSGSGTQFTLTISDVQCDDAATYYCAGGYIGSRDIFSFGGGTEVVVK", "binding signal (plate reader)": 3.54}
{"binder": "SC-B6 (IgG) (antibody, V domains shown, also called anti AQP3 antibody SC-B6) VH: QSVKESGGRLVTPGAPLTLTCTVSGFSLNNYAMTWVRQAPGKGLEWIGIINNDGISSTWYASWVKGRFIISKTSTTVDLKMTSLTTEDTATYFCARGGTSGYDIWGPGTLVTVSL VL: AQGPTQTPSPVSAAVGGTVTINCQSSPSVYKNYLSWYQQKPGQPPKLLIYGASTLASGVPSRFKGSRSGTQFTLTISDVQCDDAATYYCAGGYIGSRDIFSFGGGTEVVVK", "binding signal (plate reader)": 0.915}
{"binder": "SC-F8 (IgG) (antibody, V domains shown, also called anti AQP3 antibody SC-F8) VH: QTVKESGGRLVTPGGSLTLTCTVSRFSLSNYAMTWVRQAPGKGLEWIGIINNDGISSTWYASWVKGRFTISKTSTTMDLKMTSLTTEDTATYFCARGGTSGYDIWGPGTLVTVSL VL: AQVLTQTPSPVSAAVGGTVTINCQSSPSVYKNYLSWYQQKPGQPPKLLIYGASTLASGVPSRFKGSGSGTQFTLTISDVQCDDAATYYCAGGYRGSSDIFAFGGGTEVVVK", "binding signal (plate reader)": 1.77}
{"binder": "Antibody J (antibody, mouse IgG2a, kappa, V domains shown, also called anti AQP3 antibody J) VH: QVHLQQSGTELVKPGASVKLSCEASGYTFTSYWMHWVKQRPGQGLEWIGNINPSNGGTNYNEKFKSKATLTVDKSSSTAYMQLSSLTSEDSAVYYCARGGIYYGNYDYYAMDYWGQGTSVTVSS VL: DIVMTQAAPSVPVTPGESVSISCRSSKSLLHSNGNTYLYWFLQRPGQSPQLLIYRVSNLASGVPDRFSGSGSGTAFTLRISRVEAEDVGVYYCMQHLEYPFTFGGGTKLEIKR", "binding signal (plate reader)": 0.044}
{"binder": "Antibody C (antibody, mouse IgG2a, kappa, V domains shown, also called anti AQP3 antibody C) VH: QVQLKQSGAELARPGASVKLSCKASGYNFKSYGISWVKQRTGQGLEWIGEIYPGSGNTYYNEKLKGKATLTADKSSSTAYMELRSLTSEDSAVYFCARTYGYDSFPWFAYWGQGTLVTVSS VL: DIVMTQAAPSVPVTPGESVSISCRSSKSLLHSNGNTYLYWFLQRPGQSPQLLIYRVSNLASGVPDRFSGSGSGTAFTLRISRVEAEDEGVYYCMQHLEYPFTFGAGTKLEIKR", "binding signal (plate reader)": 0.044}
{"binder": "BC-H9 (IgG) (antibody, V domains shown, also called anti AQP3 antibody BC-H9) VH: QSLEESGGRLVTPGTPLTLTCTVSGFSLYTYAMGWVRQAPGKGLEWIGIINNDGISSTWYASWVKGRFTISKTSTTMDLKMTSLTTEDTATYFCARGGTSGYDIWGPGTLVTVSL VL: AQGLTQTPSPVSAAVGGTVTINCQSGPSVYKNYLSWYQQKAGQPPKLLIYGASTLASGVPSRFKGSGSGTQFTLTISDVQCDDAATYYCAGGYRGSSDIFAFGGGTEVVVK", "binding signal (plate reader)": 0.627}
